B1: library; numbered along this chain (parent)
chain: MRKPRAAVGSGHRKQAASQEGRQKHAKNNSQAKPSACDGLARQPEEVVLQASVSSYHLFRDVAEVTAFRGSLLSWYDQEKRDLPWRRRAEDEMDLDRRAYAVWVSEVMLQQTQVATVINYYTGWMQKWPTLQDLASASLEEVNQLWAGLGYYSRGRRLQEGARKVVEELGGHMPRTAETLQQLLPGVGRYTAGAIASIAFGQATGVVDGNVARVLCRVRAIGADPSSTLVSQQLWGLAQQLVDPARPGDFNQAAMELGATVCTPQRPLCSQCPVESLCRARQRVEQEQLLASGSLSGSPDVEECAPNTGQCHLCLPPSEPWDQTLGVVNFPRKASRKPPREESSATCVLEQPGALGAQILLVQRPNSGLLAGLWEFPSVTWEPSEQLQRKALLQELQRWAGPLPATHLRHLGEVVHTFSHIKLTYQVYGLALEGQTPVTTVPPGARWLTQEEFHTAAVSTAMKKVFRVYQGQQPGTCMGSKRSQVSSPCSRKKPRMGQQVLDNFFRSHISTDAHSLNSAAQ

- Variants of: B1
- experimental.details: 8OG:A repair function score (normalized; synonymous = 0, nonsense = -1) (normalized log-likelihood score); higher = more repair activity (WT-like);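 further: cells sorted at 72 h after reporter transfection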
- experimental.conditions: with 8OG:A DNA repair reporter (GFP) in HEK-293 MUTYH KO cells
# cutoff -0.03 applies to 8OG:A repair function score; >= gives class 1, < gives class 0

Look over these answered cases.
> print(dat)
   mutation.code  category
1          C304L   class 0
2          E382P   class 1
3          Q351A   class 1

Lookup: Say whether V328I shows 8OG:A repair function score of -0.03 or more.
Found: class 0

Lookup: Say whether A223P shows 8OG:A repair function score of -0.03 or more.
Found: class 0

Lookup: Say whether G479T shows 8OG:A repair function score of -0.03 or more.
Found: class 1

Lookup: Say whether V47I shows 8OG:A repair function score of -0.03 or more.
Found: class 1

Lookup: Say whether Y152P shows 8OG:A repair function score of -0.03 or more.
Found: class 0
